Would you kindly list GI50 for each of these molecules?
- Test system: BT-549
- procedure summary: NCI tumour cell line growth inhibition, 48 h
The source made the active and inactive calls. Cut-off read from the data, not from the text of the source: active = GI50 up to about 1.1 µM and inactive = higher.

Data request, read-out GI50, for CC1(N2CCOCC2)CC2C(=[N+]1[O-])CCC/C2=N/O (stereo not drawn) > 100 µM (inactive)

Data request, read-out GI50, for `COc1cc(S(=O)(=O)Nc2nc(-c3ccc(N)cc3)cs2)ccc1Cl` 51.9 µM (inactive)

Data request, read-out GI50, for O=C(OC1C#CCSCC#C/C=C\1)c1cnc2ccccc2n1 (stereo not drawn) > 100 µM (inactive)

Data request, read-out GI50, for `COc1cc2c3c(n(CCCNCCO)c(=O)c2cc1OC)-c1cc2c(cc1C3=O)OCO2` 0.935 µM (active)

Data request, read-out GI50, for `CC(=O)/C(=C/N1CC(=O)NC1=S)C(=O)Nc1ccccc1C` > 100 µM (inactive)

Data request, read-out GI50, for `CCOC(=O)c1ccc(C(=O)/C(C(=O)OC(C)(C)C)=C2\CCCN2C)n1C` 39.7 µM (inactive)

Data request, read-out GI50, for O=C(CCCC1Cc2ccccc2C1=O)c1ccccc1 (stereo not drawn) 38.6 µM (inactive)

Data request, read-out GI50, for `O=C(C/N=C(\CN(c1ccccc1)c1ccccc1)Oc1c([N+](=O)[O-])cc([N+](=O)[O-])cc1[N+](=O)[O-])N1CCNCC1` > 100 µM (inactive)

Data request, read-out GI50, for `Cc1nc2c(ccc3[nH]c4ccccc4c32)s1` 19.1 µM (inactive)

Data request, read-out GI50, for CC(C)(Cl)C(Br)CCC(C)(Cl)C(Br)CBr (stereo not drawn) 13.3 µM (inactive)

Data request, read-out GI50, for COC(=O)c1c(C)cccc1C1CN=NC12Cc1cccc(C)c1C2=O (stereo not drawn) 23.6 µM (inactive)

Data request, read-out GI50, for `CSc1c(C#N)c2n(c3ccccc3[n+]2C)c2ncccc12` 28.4 µM (inactive)

Data request, read-out GI50, for `c1ccc2c(c1)SCCCSCCCS2` > 100 µM (inactive)

----------
Would you kindly list GI50 for each of these compounds?
- Tested on: IGROV-1
- procedure summary: NCI tumour cell line growth inhibition, 48 h
Calls of active or inactive are those of the source. No stated cut-off is given here; in the data, active = GI50 up to about 1.1 µM and inactive = higher.

Data request, read-out GI50, for COC(=O)C1(Cc2ccccc2)Cc2ccccc2C1=O (stereo not drawn) 72.8 µM (inactive)

Data request, read-out GI50, for `Nc1nc(-c2ccc(Cl)c([N+](=O)[O-])c2)cs1` > 100 µM (inactive)

Data request, read-out GI50, for `COc1cccc(-c2nc(O)c3ccccc3n2)c1OC` > 100 µM (inactive)

----------
Would you kindly list GI50 for each of these molecules?
- System: MDA-MB-435
- procedure summary: NCI tumour cell line growth inhibition, 48 h
The source made the active and inactive calls. No stated cut-off is given here; in the data, active = GI50 up to about 1.1 µM and inactive = higher.

Data request, read-out GI50, for `CC(C)(C)c1cc2c(O)c(c1)Cc1cc(C(C)(C)C)cc(c1O)Cc1cc(C(C)(C)C)cc(c1O)Cc1cc(C(C)(C)C)cc(c1O)Cc1cc(C(C)(C)C)cc(c1O)Cc1cc(C(C)(C)C)cc(c1O)Cc1cc(C(C)(C)C)cc(c1O)Cc1cc(C(C)(C)C)cc(c1O)C2` > 50 µM (inactive)

Data request, read-out GI50, for COc1cc(S(=O)(=O)Nc2ccc(-c3csc(N4C(=O)C(C)SC4c4ccccc4O)n3)cc2)ccc1Cl (stereo not given) 37.8 µM (inactive)

Data request, read-out GI50, for `CC(C)=CC(=O)c1[nH]c2ccccc2c1CC(=O)NCCc1c[nH]cn1` > 100 µM (inactive)

Data request, read-out GI50, for Cc1ccc2c(c1)C(=S)N1CSCC1c1nncn1-2 (stereo not given) > 100 µM (inactive)

Data request, read-out GI50, for `CCn1c2ccc(C(=O)CCCN(C)C)cc2c2cc(C(=O)CCCN(C)C)ccc21` 1.27 µM (inactive)

Origin of measurements: ChEMBL document CHEMBL1201862
